Every entry's value here was drawn from paper PMC5540273.

system: FGFR3; conditions: concentration: 1 μM,replicates: in singlicate; n = 1;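 note: KINOMEscan kinase panel screen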
recorded endpoint: %Inh

Example entries begin here.
Cl.c1ccc(Oc2ccc(Nc3ccnc4cc(-c5ccc(CN6CCNCC6)o5)ccc34)cc2)nc1	0%
NC(=O)Nc1sc(-c2ccc(F)cc2)cc1C(N)=O	10%
Cl.Nc1n[nH]c2cc(-c3ccccn3)ccc12	0%
CC(C)S(=O)(=O)N1CCN(Cc2ccc3c(c2)nc(NC(=O)c2ccsc2)n3C[C@H](O)c2ccccc2)CC1	0%
COc1cc2c(Nc3ccc(NC(=O)c4ccccc4)cc3)ncnc2cc1OCCCN1CCOCC1	6%

The reported FGFR3 %Inh of Cc1n[nH]c2cc(Nc3ccnc(Nc4cccc(CN5CCOCC5)c4)n3)ccc12 is 32%

The reported FGFR3 %Inh of O=C(Nc1ccc(Oc2ccc3nc(NC(=O)C4CC4)cn3n2)c(F)c1)c1cccn(-c2ccccc2)c1=O is 11%

The reported FGFR3 %Inh of Cn1ccc2ncnc(Oc3ccc(NC(=O)Nc4cccc(C(F)(F)F)c4)c(Cl)c3)c21 is 0%

---

tested on: PRKCI; conditions: concentration: 1 μM,replicates: in singlicate; n = 1
recorded endpoint: %Inh (%)
Entry rule: numbers only, all in %.

Example entries begin here.
CC(=O)c1c(-c2ccncc2)[nH]c(-c2ccncc2)c1C [GW493036]	0
CS(=O)(=O)c1cccc(CNc2nc(Nc3ccc4c(c3)[C@@H]3C[C@@H]4CNC3=O)ncc2C(F)(F)F)c1	8
Cn1ccc2ncnc(Oc3ccc(NC(=O)Nc4ccnc(C(F)(F)F)c4)c(Cl)c3)c21	0

For the next question, use this compound.
The reported value for Cl.Nc1n[nH]c2cc(-c3ccccn3)ccc12 [GSK2189892] in terms of %Inh is 8

---

test system: PRKCE; details: concentration: 1 μM,replicates: in singlicate; n = 1
Parameter %Inh: see the listing below.
Entry rule: numbers only, all in %.

Example entries begin here.
C[C@@H]1CNc2c(sc3ccc4nc(-c5ccncc5)ccc4c23)C(=O)N1	65
Cl.c1ccc(Oc2ccc(Nc3ccnc4cc(-c5ccc(CN6CCNCC6)o5)ccc34)cc2)nc1	0
CCn1c(-c2nonc2N)nc2cncc(CNC3CCNCC3)c21.Cl	66
CC(C)c1nc(-c2cccc(NS(=O)(=O)c3ccccc3)c2)c(-c2ccnc(Nc3ccc4c(c3)CN(C)CC4)n2)s1	0
O=C(Nc1ccccc1)c1cccc(Oc2ccc3nccn3n2)c1	13

The reported value for Cn1ccc2ncnc(Oc3ccc(NC(=O)Nc4cccc(C(F)(F)F)c4)c(F)c3)c21 in terms of %Inh is 0

The reported value for C[C@@H](Oc1cc(-n2cnc3cc(-c4ccncc4)ccc32)sc1C(N)=O)c1ccccc1Cl in terms of %Inh is 18

The reported value for Cc1cccc2c(-c3ccncc3)c(-c3ccc(F)cc3)nn12.Cl in terms of %Inh is 10

The reported value for Cc1ccn2nc(-c3ccc(F)cc3)c(-c3ccncc3)c2c1.Cl in terms of %Inh is 14

---

test system: MARK1; settings: concentration: 1 μM,replicates: in singlicate; n = 1
recorded endpoint: %Inh (%)
Entry rule: numbers only, all in %.

Example entries begin here.
O=C(Nc1ccccc1)c1cccc(Oc2ccc3nccn3n2)c1	0
Cn1ccc2ncnc(Oc3ccc(NC(=O)Nc4cnn(C(C)(C)C)c4)c(Cl)c3)c21	10
CC(=O)Nc1nc2cnc(Nc3cc(NC(=O)c4cccc(CC(C)(C)C#N)c4)ccc3C)nc2s1	8
Cl.c1ccc(Oc2ccc(Nc3ccnc4cc(-c5ccc(CN6CCNCC6)o5)ccc34)cc2)nc1	0
O=C(Nc1ccc(Oc2ccc3nc(NC(=O)C4CC4)cn3n2)c(F)c1)c1cccn(-c2ccccc2)c1=O	0

The reported MARK1 %Inh of C[C@@H](Oc1cc(-n2cnc3cc(-c4cnn(C)c4)ccc32)sc1C(N)=O)c1ccccc1Cl is 63

The reported MARK1 %Inh of CC(=O)Nc1ccc(-c2cc3ncnc(SCC(=O)O)c3s2)cc1 is 0

The reported MARK1 %Inh of COc1cccc(OC)c1C(=O)Nc1cccc(-c2nn3ccccc3c2-c2ccnc(Nc3cccc(F)c3)n2)c1 is 17

The reported MARK1 %Inh of COc1cc2ncn(-c3cc(OCC4CCCCC4)c(C(N)=O)s3)c2cc1OC is 14

The reported MARK1 %Inh of Cn1cc(-c2cccc3c(N)c(C(N)=O)nnc23)cn1 is 0

The reported MARK1 %Inh of COC(=O)c1cccc(NC(=O)NC2CCN(c3ccnc(Nc4cc(OC)c(OC)c(OC)c4)n3)C2)c1 (stereo not drawn) is 0

The reported MARK1 %Inh of CSc1nccc(-c2c(-c3ccc(F)cc3)ncn2CCCN2CCOCC2)n1.Cl is 15

The reported MARK1 %Inh of COC(=O)c1cccc(NC(=O)NC2CCN(c3ccnc(NCc4ccc(F)cc4)n3)CC2)c1 is 0

The reported MARK1 %Inh of CS(=O)(=O)Nc1ccc(-c2ccnc3[nH]ccc23)cc1 is 0

The reported MARK1 %Inh of Nc1nccc(-c2ccc3c(N)n[nH]c3c2)n1 is 0

The reported MARK1 %Inh of CN1CCN(CCNc2nc3cc(Oc4ccc(NC(=O)Nc5cc(C(F)(F)F)ccc5F)cc4)ccc3[nH]2)CC1.Cl.Cl is 19

The reported MARK1 %Inh of CC(C(=O)NC1CCN(c2ccnc(Nc3ccc(F)cc3)n2)C1)c1ccc(Cl)cc1 (stereo not drawn) is 0

The reported MARK1 %Inh of Cn1ccc2ncnc(Oc3ccc(NC(=O)Nc4cccc(C(F)(F)F)c4)c(F)c3)c21 is 13
